What TGI was measured for each of the following?
- Tested on: HOP-92 NSCLC
- EXPERIMENT NOTES: NCI tumour cell line growth inhibition, 48 h
Just the number in µM, nothing appended.

Identify measured TGI corresponding to `O=C(N[C@@H](c1ccc(Cl)c(Cl)c1)C1CNC1)c1ccc2cnccc2c1` 3.34

Give me measured TGI, please, for this molecule: CCSc1ncnc2c1ncn2C1OC(CO)C(O)C1O (configuration not stated) 12.2

Query TGI for `O=[N+]([O-])/C(C(Cl)=C(Cl)Cl)=C(/Cl)Sc1ccccc1` 3.85

Provide one value: measured TGI of Cc1nn(-c2ccccc2)c2c1C(c1ccc(Cl)cc1)NC(=S)N2 (configuration not stated) 35.2

Input `CS(=O)(=O)CCNCc1nc(-c2ccc3ncnc(Nc4ccc(OCc5cccc(C(F)(F)F)c5)cc4)c3c2)cs1` , output reported TGI. 15.8

Input `O=[N+]([O-])c1ccc2c(c1)C1=C(CO2)Cc2ccccc2O1` , output reported TGI. 81.5

State its TGI: `CC(=O)c1[nH]c(NCc2ccccc2)c(C(=S)Nc2ccccc2)c1N` 59.3

Return value of TGI for input `O=C(/C=C/c1cccc2ccccc12)c1ccccc1Cl` , no commentary. 26.4

Where these numbers come from: PubChem BioAssay (NCI)
